The reported measurements were obtained from the supplement of paper PMC10567573.

B1: SLC35F2 (parent)
chain: QYLAERYKVNTPMLQSFINYCLLF

variants of: B1; test: protein stability index of a GFP-peptide fusion (GPS, HEK-293T) (PSI 1-6); higher = more stable; conditions: c terminus: a fixed tail appended;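 further: lentivirally expressed fusions sorted by FACS into six bins by GFP to DsRed ratio, PSI derived from sequencing read proportions per bin multiplied by bin number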
// f strictly below 3 in protein stability index; t otherwise

{"change": "Y20P", "class-name": "f"}
{"change": "Q1V", "class-name": "t"}
{"change": "R6Q", "class-name": "f"}
{"change": "E5Y", "class-name": "f"}
{"change": "L22Q", "class-name": "f"}
{"change": "Q15G", "class-name": "t"}
{"change": "K8C", "class-name": "t"}
{"change": "Y2L", "class-name": "f"}
{"change": "F24D", "class-name": "f"}
{"change": "Y2D", "class-name": "f"}

(Q) Kindly determine if protein stability index recorded for R6A is above or exactly 3.
(A) f

(Q) Likewise for N19L ?
(A) f

(Q) And L3K ?
(A) f

(Q) What would you report for S16L ?
(A) t

(Q) Queued: L23T
(A) f

(Q) // next record R6K
(A) f

(Q) What do you get for V9F ?
(A) t

(Q) Next up: L23S
(A) f

(Q) Try this variant next: M13H
(A) f

(Q) Here is the next variant: Y20S
(A) f

(Q) Would you kindly repeat that for T11W ?
(A) f

(Q) Queued: A4F
(A) f

(Q) Now this one: Q1G
(A) t
